- Tested on: Enterococcus faecalis
- MEASUREMENT DESCRIPTION: Antimicrobial activity against daptomycin-resistant Enterococcus faecalis ATCC 49452 incubated anaerobically at 37 degC for 48 hrs by agar dilution method
- Type: functional
- CONDITION CONTEXT: ATCC 49452, 48 h
Give measured MIC for each item. Keep answers brief.

Answered cases to consult:
MOLECULE	MIC
CCCCCCCCCC(=O)N[C@@H](Cc1c[nH]c2ccccc12)C(=O)N[C@H](CC(N)=O)C(=O)N[C@@H](CC(=O)O)C(=O)N[C@@H]1C(=O)NCC(=O)N[C@@H](CCCN)C(=O)N[C@@H](CC(=O)O)C(=O)N[C@H](C)C(=O)N[C@@H](CC(=O)O)C(=O)NCC(=O)N[C@H](CO)C(=O)N[C@@H]([C@H](C)CC(=O)O)C(=O)N[C@@H](CC(=O)c2ccccc2N)C(=O)O[C@@H]1C	> 32 µg/mL
CCCCCCCCOc1ccc(-c2ccc(C(=O)N[C@@H](Cc3c[nH]c4ccccc34)C(=O)N[C@@H](CC(N)=O)C(=O)N[C@@H](CC(=O)O)C(=O)N[C@@H]3C(=O)NCC(=O)N[C@@H](CCCN)C(=O)N[C@H](CC(=O)O)C(=O)N[C@H](C)C(=O)N[C@@H](CC(=O)O)C(=O)NCC(=O)N[C@H](CO)C(=O)N[C@@H]([C@@H](C)CC(=O)O)C(=O)N[C@@H](CC(=O)c4ccccc4N)C(=O)O[C@@H]3C)cc2)cc1	16 µg/mL

Now, please, on to the next molecule.
Item under review: CCCCc1ccc(/C=C(\C)C(=O)N[C@@H](Cc2c[nH]c3ccccc23)C(=O)N[C@@H](CC(N)=O)C(=O)N[C@@H](CC(=O)O)C(=O)N[C@@H]2C(=O)NCC(=O)N[C@@H](CCCN)C(=O)NC(CC(=O)O)C(=O)N[C@H](C)C(=O)N[C@@H](CC(=O)O)C(=O)NCC(=O)N[C@H](CO)C(=O)N[C@@H]([C@@H](C)CC(=O)O)C(=O)N[C@@H](CC(=O)c3ccccc3N)C(=O)O[C@@H]2C)cc1 (single isomer, unassigned) . Reported MIC?
> 32 µg/mL

* * *

Hi there, I'd appreciate the recorded MIC for every entry that follows.
- Test system: Enterococcus faecalis
- MEASUREMENT DESCRIPTION: Antimicrobial activity against daptomycin-resistant Enterococcus faecalis ATCC 49452 incubated anaerobically at 37 degC for 48 hrs by agar dilution method
- Format: functional
- CONDITION CONTEXT: ATCC 49452, 48 h
Give bare numbers, in µg/mL.

COMPOUND	ASSAY ENDPOINT	MEASURE UNIT	MEASUREMENT
CCCCCc1ccc(/C(C)=C/C(=O)N[C@@H](Cc2c[nH]c3ccccc23)C(=O)N[C@H](CC(N)=O)C(=O)N[C@@H](CC(=O)O)C(=O)N[C@@H]2C(=O)NCC(=O)N[C@@H](CCCN)C(=O)N[C@@H](CC(=O)O)C(=O)N[C@H](C)C(=O)N[C@@H](CC(=O)O)C(=O)NCC(=O)N[C@H](CO)C(=O)N[C@@H]([C@@H](C)CC(=O)O)C(=O)N[C@@H](CC(=O)c3ccccc3N)C(=O)O[C@@H]2C)cc1	MIC	µg/mL	4

Data request, read-out MIC, for CCCCCCCCCCCCCCC(=O)N[C@@H](Cc1c[nH]c2ccccc12)C(=O)N[C@@H](CC(N)=O)C(=O)N[C@@H](CC(=O)O)C(=O)N[C@@H]1C(=O)NCC(=O)N[C@@H](CCCN)C(=O)NC(CC(=O)O)C(=O)N[C@H](C)C(=O)N[C@@H](CC(=O)O)C(=O)NCC(=O)N[C@H](CO)C(=O)N[C@@H]([C@@H](C)CC(=O)O)C(=O)N[C@@H](CC(=O)c2ccccc2N)C(=O)O[C@@H]1C (single isomer, unassigned)
4

* * *

- Test system: Enterococcus faecium
- MEASUREMENT DESCRIPTION: Antimicrobial activity against daptomycin-resistant Enterococcus faecium ATCC 6569 incubated anaerobically at 37 degC for 48 hrs by agar dilution method
- Assay type: functional
- CONDITION CONTEXT: ATCC 6569, 48 h
ASSAY ENDPOINT: MIC (mg/L)
Answers are plain numbers, in mg/L.

Take a look at these entries with their results.
COMPOUND	MIC, mg/L
CCCCCC12CCC(C(=O)N[C@@H](Cc3c[nH]c4ccccc34)C(=O)N[C@@H](CC(N)=O)C(=O)N[C@@H](CC(=O)O)C(=O)N[C@@H]3C(=O)NCC(=O)N[C@@H](CCCN)C(=O)N[C@H](CC(=O)O)C(=O)N[C@H](C)C(=O)N[C@@H](CC(=O)O)C(=O)NCC(=O)N[C@H](CO)C(=O)N[C@@H]([C@@H](C)CC(=O)O)C(=O)N[C@@H](CC(=O)c4ccccc4N)C(=O)O[C@@H]3C)(CC1)CC2	16
CC(C)CCCCCCCCCCC(=O)N[C@@H](Cc1c[nH]c2ccccc12)C(=O)N[C@@H](CC(N)=O)C(=O)N[C@@H](CC(=O)O)C(=O)N[C@@H]1C(=O)NCC(=O)N[C@@H](CCCN)C(=O)NC(CC(=O)O)C(=O)N[C@H](C)C(=O)N[C@@H](CC(=O)O)C(=O)NCC(=O)N[C@H](CO)C(=O)N[C@@H]([C@@H](C)CC(=O)O)C(=O)N[C@@H](CC(=O)c2ccccc2N)C(=O)O[C@@H]1C (single isomer, unassigned)	4
C[C@H]1NC(=O)[C@@H](CC(=O)O)NC(=O)[C@H](CCCN)NC(=O)CNC(=O)[C@@H](NC(=O)[C@H](CC(=O)O)NC(=O)[C@H](CC(N)=O)NC(=O)[C@H](Cc2c[nH]c3ccccc23)NC(=O)C2CCCCCCCCCCC2)[C@@H](C)OC(=O)[C@H](CC(=O)c2ccccc2N)NC(=O)[C@H]([C@@H](C)CC(=O)O)NC(=O)[C@@H](CO)NC(=O)CNC(=O)[C@H](CC(=O)O)NC1=O	32

Entry CCCCCCc1ccc(C(=O)N[C@@H](Cc2c[nH]c3ccccc23)C(=O)N[C@@H](CC(N)=O)C(=O)N[C@@H](CC(=O)O)C(=O)N[C@@H]2C(=O)NCC(=O)N[C@@H](CCCN)C(=O)N[C@H](CC(=O)O)C(=O)N[C@H](C)C(=O)N[C@@H](CC(=O)O)C(=O)NCC(=O)N[C@H](CO)C(=O)N[C@@H]([C@@H](C)CC(=O)O)C(=O)N[C@@H](CC(=O)c3ccccc3N)C(=O)O[C@@H]2C)cc1 has what MIC?
32

* * *

- Tested on: Staphylococcus aureus
- MEASUREMENT DESCRIPTION: Antimicrobial activity against daptomycin-susceptible Staphylococcus aureus ATCC 29213 incubated anaerobically at 37 degC for 48 hrs by agar dilution method
- Assay type: functional
- CONDITION CONTEXT: ATCC 29213, 48 h
ASSAY ENDPOINT: MIC (mg/L)
Numbers only, in mg/L.

Some compounds with recorded MIC:
COMPOUND	MIC [mg/L]
C[C@H]1NC(=O)C(CC(=O)O)NC(=O)[C@H](CCCN)NC(=O)CNC(=O)[C@@H](NC(=O)[C@H](CC(=O)O)NC(=O)[C@H](CC(N)=O)NC(=O)[C@H](Cc2c[nH]c3ccccc23)NC(=O)CCCCCCC2CCCCC2)[C@@H](C)OC(=O)[C@H](CC(=O)c2ccccc2N)NC(=O)[C@H]([C@@H](C)CC(=O)O)NC(=O)[C@@H](CO)NC(=O)CNC(=O)[C@H](CC(=O)O)NC1=O (single isomer, unassigned)	0.5
CC(C)CCCCCCCCCCC(=O)N[C@@H](Cc1c[nH]c2ccccc12)C(=O)N[C@@H](CC(N)=O)C(=O)N[C@@H](CC(=O)O)C(=O)N[C@@H]1C(=O)NCC(=O)N[C@@H](CCCN)C(=O)NC(CC(=O)O)C(=O)N[C@H](C)C(=O)N[C@@H](CC(=O)O)C(=O)NCC(=O)N[C@H](CO)C(=O)N[C@@H]([C@@H](C)CC(=O)O)C(=O)N[C@@H](CC(=O)c2ccccc2N)C(=O)O[C@@H]1C (single isomer, unassigned)	0.125
C[C@H]1NC(=O)[C@@H](CC(=O)O)NC(=O)[C@H](CCCN)NC(=O)CNC(=O)[C@@H](NC(=O)[C@H](CC(=O)O)NC(=O)[C@H](CC(N)=O)NC(=O)[C@H](Cc2c[nH]c3ccccc23)NC(=O)C2CCCCCCCCCCC2)[C@@H](C)OC(=O)[C@H](CC(=O)c2ccccc2N)NC(=O)[C@H]([C@@H](C)CC(=O)O)NC(=O)[C@@H](CO)NC(=O)CNC(=O)[C@H](CC(=O)O)NC1=O	1
CCCCCCCOc1ccc(-c2ccc(C(=O)N[C@@H](Cc3c[nH]c4ccccc34)C(=O)N[C@@H](CC(N)=O)C(=O)N[C@@H](CC(=O)O)C(=O)N[C@@H]3C(=O)NCC(=O)N[C@@H](CCCN)C(=O)N[C@H](CC(=O)O)C(=O)N[C@H](C)C(=O)N[C@@H](CC(=O)O)C(=O)NCC(=O)N[C@H](CO)C(=O)N[C@@H]([C@@H](C)CC(=O)O)C(=O)N[C@@H](CC(=O)c4ccccc4N)C(=O)O[C@@H]3C)cc2)cc1	0.25
C[C@H]1NC(=O)C(CC(=O)O)NC(=O)[C@H](CCCN)NC(=O)CNC(=O)[C@@H](NC(=O)[C@H](CC(=O)O)NC(=O)[C@H](CC(N)=O)NC(=O)[C@H](Cc2c[nH]c3ccccc23)NC(=O)CCCCC2CCCCC2)[C@@H](C)OC(=O)[C@H](CC(=O)c2ccccc2N)NC(=O)[C@H]([C@@H](C)CC(=O)O)NC(=O)[C@@H](CO)NC(=O)CNC(=O)[C@H](CC(=O)O)NC1=O (single isomer, unassigned)	1

// input: 2 compounds below; output: MIC for each
1. CC(C)CCCCCCCCCC(=O)N[C@@H](Cc1c[nH]c2ccccc12)C(=O)N[C@@H](CC(N)=O)C(=O)N[C@@H](CC(=O)O)C(=O)N[C@@H]1C(=O)NCC(=O)N[C@@H](CCCN)C(=O)NC(CC(=O)O)C(=O)N[C@H](C)C(=O)N[C@@H](CC(=O)O)C(=O)NCC(=O)N[C@H](CO)C(=O)N[C@@H]([C@@H](C)CC(=O)O)C(=O)N[C@@H](CC(=O)c2ccccc2N)C(=O)O[C@@H]1C (single isomer, unassigned)
2. CCCCCc1ccc(/C(C)=C/C(=O)N[C@@H](Cc2c[nH]c3ccccc23)C(=O)N[C@H](CC(N)=O)C(=O)N[C@@H](CC(=O)O)C(=O)N[C@@H]2C(=O)NCC(=O)N[C@@H](CCCN)C(=O)N[C@@H](CC(=O)O)C(=O)N[C@H](C)C(=O)N[C@@H](CC(=O)O)C(=O)NCC(=O)N[C@H](CO)C(=O)N[C@@H]([C@@H](C)CC(=O)O)C(=O)N[C@@H](CC(=O)c3ccccc3N)C(=O)O[C@@H]2C)cc1

[0.25, 0.25]
